Parameter IC50: see the listing below.
- System: HeLa
- procedureDetails: In vitro antitumor activity against HeLa cell lines by using MTT assay
- Format: functional, cell-based
- conditionDetails: Homo sapiens
State the answer as a number, implicitly in µM.

What IC50 value was documented for this molecule, CCCC(=O)NCCCCNCCCNC(=O)c1csc(-c2csc(CCNC(=O)[C@@H](NC(=O)[C@@H](C)C(O)C(C)NC(=O)[C@@H](NC(=O)c3nc([C@H](CC(N)=O)NCC(N)C(N)=O)nc(N)c3C)[C@@H](O[C@@H]3O[C@@H](CO)[C@@H](O)[C@@H](O)[C@@H]3OC3O[C@H](CO)[C@@H](O)[C@H](OC(N)=O)[C@@H]3O)c3c[nH]cn3)[C@@H](C)O)n2)n1 (some centres not stated) ?
13.8

====

- Test system: HeLa
- procedureDetails: In vitro antitumor activity against HeLa cell lines by using MTT assay
- Assay type: functional, cell-based
- conditionDetails: Homo sapiens
Parameter pIC50: see the listing below.
Entry type: numeric. Quantity: pIC50, the -log10 of concentration in molar units.

Answered examples (5):
{"compound": "CC(=O)NCCCCNCCCNC(=O)c1csc(-c2csc(CCNC(=O)[C@@H](NC(=O)[C@@H](C)C(O)C(C)NC(=O)[C@@H](NC(=O)c3nc([C@H](CC(N)=O)NCC(N)C(N)=O)nc(N)c3C)[C@@H](O[C@@H]3O[C@@H](CO)[C@@H](O)[C@@H](O)[C@@H]3O[C@H]3O[C@H](CO)[C@@H](O)[C@H](OC(N)=O)[C@@H]3O)c3c[nH]cn3)[C@@H](C)O)n2)n1 (stereo partly specified)", "pIC50": 4.82}
{"compound": "Cc1c(N)nc([C@H](CC(N)=O)NCC(N)C(N)=O)nc1C(=O)N[C@H](C(=O)NC(C)C(O)[C@H](C)C(=O)N[C@H](C(=O)NCCc1nc(-c2nc(C(=O)NCCCNCCCCNC(=O)c3ccccc3)cs2)cs1)[C@@H](C)O)[C@@H](O[C@@H]1O[C@@H](CO)[C@@H](O)[C@@H](O)[C@@H]1O[C@H]1O[C@H](CO)[C@@H](O)[C@H](OC(N)=O)[C@@H]1O)c1c[nH]cn1 (stereo partly specified)", "pIC50": 4.93}
{"compound": "CCC(=O)NCCCCNCCCNC(=O)c1csc(-c2csc(CCNC(=O)[C@@H](NC(=O)[C@@H](C)C(O)C(C)NC(=O)[C@@H](NC(=O)c3nc([C@H](CC(N)=O)NCC(N)C(N)=O)nc(N)c3C)[C@@H](O[C@@H]3O[C@@H](CO)[C@@H](O)[C@@H](O)[C@@H]3O[C@H]3O[C@H](CO)[C@@H](O)[C@H](OC(N)=O)[C@@H]3O)c3c[nH]cn3)[C@@H](C)O)n2)n1 (stereo partly specified)", "pIC50": 4.84}
{"compound": "Cc1c(N)nc([C@H](CC(N)=O)NCC(N)C(N)=O)nc1C(=O)N[C@H](C(=O)NC(C)C(O)[C@H](C)C(=O)N[C@H](C(=O)NCCc1nc(-c2nc(C(=O)NCCCNCCCCNC=O)cs2)cs1)[C@@H](C)O)[C@@H](O[C@@H]1O[C@@H](CO)[C@@H](O)[C@@H](O)[C@@H]1O[C@H]1O[C@H](CO)[C@@H](O)[C@H](OC(N)=O)[C@@H]1O)c1c[nH]cn1 (stereo partly specified)", "pIC50": 4.91}
{"compound": "Cc1c(N)nc([C@H](CC(N)=O)NCC(N)C(N)=O)nc1C(=O)N[C@H](C(=O)NC(C)C(O)[C@H](C)C(=O)N[C@H](C(=O)NCCc1nc(-c2nc(C(=O)NCCC[S+](C)C)cs2)cs1)[C@@H](C)O)[C@@H](O[C@@H]1O[C@@H](CO)[C@@H](O)[C@H](O)[C@@H]1O[C@H]1O[C@H](CO)[C@@H](O)[C@H](OC(N)=O)[C@@H]1O)c1c[nH]cn1 (stereo partly specified)", "pIC50": 4.79}

Shift focus to the following entry.
What pIC50 value was documented for this compound, Cc1c(N)nc([C@H](CC(N)=O)NCC(N)C(N)=O)nc1C(=O)N[C@H](C(=O)NC(C)C(O)[C@H](C)C(=O)N[C@H](C(=O)NCCc1nc(-c2nc(C(=O)NCCCNCCCCNC(=O)c3ccccn3)cs2)cs1)[C@@H](C)O)[C@@H](O[C@@H]1O[C@@H](CO)[C@@H](O)[C@@H](O)[C@@H]1O[C@H]1O[C@H](CO)[C@@H](O)[C@H](OC(N)=O)[C@@H]1O)c1c[nH]cn1 (stereo partly specified) ?
4.83
